# procedure summary: Toxicity in fasted Sprague-Dawley rat assessed as mortality rate at 500 mg/kg, IG measured for 14 days
# Assay type: organism-based
# measurement parameters: in vivo, po, time 14 day
quantity measured: mortality at 336 h (%)
Reply numerically in %, unit not repeated.

Exercise: Identify mortality at 336 h associated with the molecule C=C[C@]1(C)C[C@@H](OC(=O)COC(=O)/C=C/c2ccc(N(C)C)cc2)[C@]2(C)[C@H](C)CC[C@]3(CCC(=O)[C@H]32)[C@@H](C)[C@@H]1O
Key: 10

###

# procedure summary: Volume of distribution at steady state in fasted Sprague-Dawley rat at 1 mg/kg, iv by LC-MS/MS analysis
# Type: ADME, organism-based
# measurement parameters: in vivo, read-out: Vdss
quantity measured: Vd (L/kg)
Reply numerically in L/kg, unit not repeated.

Exercise: Identify Vd associated with the molecule C=C[C@]1(C)C[C@@H](OC(=O)COC(=O)/C=C/c2ccc(N(C)C)cc2)[C@]2(C)[C@H](C)CC[C@]3(CCC(=O)[C@H]32)[C@@H](C)[C@@H]1O
Key: 2

Cited source: ChEMBL document CHEMBL5625206
